Data origin: patent US20200397852A1

- experiment notes: Solubility in normal saline at pH 7
Where a SMILES comes first, the peptide text is derived from it. [ ]: non-standard residue; d: D form. pGlu = O=C1CC[C@@H](C(=O)O)N1
endpoint label: solubility

molecule	measured
CC[C@H](C)[C@H](NC(=O)[C@@H]1CCCN1C(=O)[C@H](CCC(N)=O)NC(=O)[C@H](CCC(=O)O)NC(=O)[C@@H]1CCCN1C(=O)[C@@H]1CCC(=O)N1)C(=O)N1CCC[C@H]1C(=O)N[C@@H](CCC(=O)O)C(=O)N[C@@H](CCC(N)=O)C(=O)N1CCC[C@H]1C(=O)N[C@@H](CCC(N)=O)C(=O)N1CCC[C@H]1C(=O)N[C@@H](Cc1ccc(O)cc1)C(=O)N1CCC[C@H]1C(=O)N[C@@H](CCC(N)=O)C(=O)N[C@@H](CCC(N)=O)C(N)=O	> 50 mg/mL

We next turn to a different molecule, shown below.
Request: Indicate the recorded solubility value for this molecule: NC(=O)CC[C@H](NC(=O)[C@H](Cc1c[nH]c2ccccc12)NC(=O)[C@@H]1CCCN1C(=O)[C@H](Cc1ccccc1)NC(=O)[C@@H]1CCCN1C(=O)[C@H](CCC(N)=O)NC(=O)[C@H](CCC(=O)O)NC(=O)[C@@H]1CCCN1C(=O)[C@H](CCC(N)=O)NC(=O)[C@@H]1CCCN1C(=O)[C@H](Cc1ccccc1)NC(=O)[C@@H]1CCCN1C(=O)[C@H](CCC(N)=O)NC(=O)[C@@H]1CCC(=O)N1)C(=O)N1CCC[C@H]1C(N)=O [NPL002, (pE)QPFPQPEQPFPWQP-NH2] ([pGlu]QPFPQPEQPFPWQP-NH2)
Response: ≤ 25 mg/mL

====

- condition info: pH 7
Where a SMILES comes first, the peptide text is derived from it. [ ]: non-standard residue; d: D form. pGlu = O=C1CC[C@@H](C(=O)O)N1
endpoint label: solubility

Request: Consider the molecule CC(C)C[C@H](NC(=O)[C@@H]1CCC(=O)N1)C(=O)N[C@@H](CCC(N)=O)C(=O)N1CCC[C@H]1C(=O)N[C@@H](Cc1ccccc1)C(=O)N1CCC[C@H]1C(=O)N[C@@H](CCC(N)=O)C(=O)N1CCC[C@H]1C(=O)N[C@@H](CCC(=O)O)C(=O)N[C@@H](CC(C)C)C(=O)N1CCC[C@H]1C(=O)N[C@@H](Cc1ccc(O)cc1)C(=O)N1CCC[C@H]1C(=O)N[C@@H](CCC(N)=O)C(=O)N1CCC[C@H]1C(=O)N[C@@H](CCC(N)=O)C(N)=O [NPL001, (pE)LQPFPQPELPYPQPQ-NH2] ([pGlu]LQPFPQPELPYPQPQ-NH2) and give its recorded solubility.
Response: > 50 mg/mL
